Molecular target: T1, biotinylated human DLL3 protein expressed as a human IgG1 fusion protein (human, UniProt Q9NYJ7 27-492, limits assumed, biotinylated)
T1 sequence: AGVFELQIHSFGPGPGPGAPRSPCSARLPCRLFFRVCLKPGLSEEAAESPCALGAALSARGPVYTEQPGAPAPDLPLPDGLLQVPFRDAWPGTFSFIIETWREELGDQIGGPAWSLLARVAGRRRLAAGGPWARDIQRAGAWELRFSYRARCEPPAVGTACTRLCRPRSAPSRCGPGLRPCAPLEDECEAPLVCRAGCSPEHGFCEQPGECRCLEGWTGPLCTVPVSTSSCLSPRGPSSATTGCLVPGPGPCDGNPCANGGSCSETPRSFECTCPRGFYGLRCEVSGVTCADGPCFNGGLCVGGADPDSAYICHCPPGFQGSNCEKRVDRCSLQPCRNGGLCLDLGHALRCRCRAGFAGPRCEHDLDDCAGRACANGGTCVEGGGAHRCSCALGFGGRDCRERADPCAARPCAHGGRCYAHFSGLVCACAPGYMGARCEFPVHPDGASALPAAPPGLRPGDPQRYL
Assay: Octet BLI, single 50 nM
Below is a list of entries, each paired with its recorded Kd value.
value type: Kd (nM)

- 4B01 anti-DLL3 trispecific protein (other, not shown: linker 1808, anti-albumin sdAb, linker 1808, anti-CD3 fragment, His6 1819) EVQLVESGGGLVQPGGSLTLSCAASGSSVKFLSMAWYRQAPGKKRELVAGISRDGSTDYIDSVKGRFTISRDNAKNSVYLQMNSLRAEDTAVYYCYAYRWTTRFTYWGQGTLVTVSS: 11
- 4H04 anti-DLL3 trispecific protein (other, not shown: linker 1808, anti-albumin sdAb, linker 1808, anti-CD3 fragment, His6 1819) EVQLVESGGGLVQPGGSLTLSCAASGSSVKFLSMAWYRQAPGKKRELVAGVSADGSTDYIDSVKGRFTISRDNAKNSVYLQMNSLRAEDTAVYYCYAYEWTTRYTYWGQGTLVTVSS: 6.1
- 4B07 anti-DLL3 trispecific protein (other, not shown: linker 1808, anti-albumin sdAb, linker 1808, anti-CD3 fragment, His6 1819) EVQLVESGGGLVQPGGSLTLSCAASGSSVGFLSMAWYRQAPGKKRELVAGISADGSTVYIDSVKGRFTISRDNAKNSVYLQMNSLRAEDTAVYYCYAYRWTTRYTYWGQGTLVTVSS: 4.3
- 4G01 anti-DLL3 trispecific protein (other, not shown: linker 1808, anti-albumin sdAb, linker 1808, anti-CD3 fragment, His6 1819) EVQLVESGGGLVQPGGSLTLSCAASGSSVRFLSMAWYRQAPGKKRELVAGISADGSTVYIDSVKGRFTISRDNAKNSVYLQMNSLRAEDTAVYYCYAYRWPTRYTYWGQGTLVTVSS: 3.6
- 4A02 anti-DLL3 trispecific protein (other, not shown: linker 1808, anti-albumin sdAb, linker 1808, anti-CD3 fragment, His6 1819) EVQLVESGGGLVQPGGSLTLSCAASGSSVRFLSMAWYRQAPGKKRELVAGISNDGSTDYIDSVKGRFTISRDNAKNSVYLQMNSLRAEDTAVYYCYAYRWKTRYTYWGQGTLVTVSS: 9
- 3E01 anti-DLL3 trispecific protein (other, not shown: linker 1808, anti-albumin sdAb, linker 1808, anti-CD3 fragment, His6 1819) EVQLVESGGGLVQPGGSLTLSCAASGSSVKFLSMAWYRQAPGKKRELVAGISADGSTMYIDSVKGRFTISRDNAKNSVYLQMNSLRAEDTAVYYCYAYRWHTRYTYWGQGTLVTVSS: 16
- 2A03 anti-DLL3 trispecific protein (other, not shown: linker 1808, anti-albumin sdAb, linker 1808, anti-CD3 fragment, His6 1819) EVQLVESGGGLVQPGGSLTLSCVASGTTSSINAMGWYRRAPGKQRELVAGISSDGSKVYGDSVKGRFTISRDNAKNSVYLQMNSLRAEDTAVYYCYYFRTVSGSAMRYWGQGTLVTVSS: 8.2
- 4G05 anti-DLL3 trispecific protein (other, not shown: linker 1808, anti-albumin sdAb, linker 1808, anti-CD3 fragment, His6 1819) EVQLVESGGGLVQPGGSLTLSCAASGSSVSILSMAWYRQAPGKKRELVAGISADGSTIYIDSVKGRFTISRDNAKNSVYLQMNSLRAEDTAVYYCYAYRWHTRYTYWGQGTLVTVSS: 9.7
